Test system: Staphylococcus aureus
ASSAY: Antibacterial activity, disc diffusion method
Format: cell-based
CONDITION_NOTES: Staphylococcus aureus; read-out: Staphylococcus aureus 40 ug/ml (percentage inhibition)
Some compounds, each annotated with its measured inhibition at 40 µg/mL.
MEASURE_NAME: inhibition at 40 µg/mL (%)

>>> numeric_result("C#CCOc1ccc([N+](=O)[O-])cc1")
18.7
>>> numeric_result("C#CCNc1cccc2ccccc12")
5.85
>>> numeric_result("C#CCOc1ccc(Br)cc1Br")
31.5
>>> numeric_result("C#CCNc1ccc(Br)c(C)c1")
15.9
>>> numeric_result("C#CCOc1ccc(Br)cc1Cl")
29.1
>>> numeric_result("C#CCOc1ccc(C)cc1Br")
27.7
>>> numeric_result("C#CCOc1ccc(S(=O)(=O)c2ccc(OCC#C)cc2)cc1")
26.9
>>> numeric_result("C#CCOc1ccc2ccccc2c1")
21.4
>>> numeric_result("C#CCOc1ccc(Cl)cc1Br")
31.5
